- Test system: Escherichia coli
- PROTOCOL DESCRIPTION: Antibacterial activity against Escherichia coli ATCC 25922 incubated for 18 to 24 hrs by broth microdilution method
- Assay type: functional
Where a SMILES comes first, the peptide text is derived from it.
PROPERTY LABEL: log10 of MIC (log10 of the value in µM)
Values are log10 of MIC in µM.

Report log10 of MIC for every entry below.
1. CC(C)C[C@H](NC(=O)[C@H](CCCNC(=N)N)NC(=O)[C@H](Cc1c[nH]c2ccccc12)NC(=O)[C@H](CCCNC(=N)N)NC(=O)[C@@H](NC(=O)[C@H](Cc1c[nH]c2ccccc12)NC(=O)[C@H](Cc1c[nH]c2ccccc12)NC(=O)[C@H](CCCNC(=N)N)NC(=O)[C@H](CC(C)C)NC(=O)[C@H](Cc1c[nH]c2ccccc12)NC(=O)[C@@H](N)CCCNC(=N)N)[C@@H](C)O)C(=O)N[C@@H](CCCCN)C(N)=O (H-RWLRWWTRWRLK-NH2)
2. CC(C)C[C@H](NC(=O)[C@H](CCCCN)NC(=O)[C@H](Cc1c[nH]c2ccccc12)NC(=O)[C@H](CCCCN)NC(=O)[C@H](CC(C)C)NC(=O)[C@H](CCCCN)NC(=O)[C@H](Cc1c[nH]c2ccccc12)NC(=O)[C@H](CCCCN)NC(=O)[C@H](CC(C)C)NC(=O)[C@H](CCCCN)NC(=O)[C@@H](N)Cc1c[nH]c2ccccc12)C(=O)N[C@@H](CCCCN)C(N)=O (H-WKLKWKLKWKLK-NH2)
3. CC[C@H](C)[C@H](NC(=O)[C@H](CCCNC(=N)N)NC(=O)[C@H](Cc1c[nH]c2ccccc12)NC(=O)[C@H](CCCNC(=N)N)NC(=O)[C@@H](NC(=O)[C@H](CCCCN)NC(=O)[C@H](Cc1c[nH]c2ccccc12)NC(=O)[C@H](CCCNC(=N)N)NC(=O)[C@@H](NC(=O)[C@H](CCCNC(=N)N)NC(=O)[C@@H](N)Cc1c[nH]c2ccccc12)[C@@H](C)CC)[C@@H](C)O)C(=O)N[C@@H](CCCCN)C(N)=O (H-WRIRWKTRWRIK-NH2)
4. CN(C)c1ccc(O)c2c1C[C@H]1C[C@H]3[C@H](N(C)C)C(O)=C(C(N)=O)C(=O)[C@@]3(O)C(O)=C1C2=O [MINOCYCLINE]
5. CC1COc2c(N3CCN(C)CC3)c(F)cc3c(=O)c(C(=O)O)cn1c23 (configuration not stated) [OFLOXACIN]

Key:
0.60
0.60
0.60
0.00
-0.90

Report log10 of MIC for every entry below.
1. CC(C)(O/N=C(\C(=O)N[C@@H]1C(=O)N2C(C(=O)[O-])=C(C[n+]3ccccc3)CS[C@H]12)c1csc(N)n1)C(=O)O [CEFTAZIDIME]
2. CN[C@H](CC(C)C)C(=O)N[C@H]1C(=O)N[C@@H](CC(N)=O)C(=O)N[C@H]2C(=O)N[C@H]3C(=O)N[C@H](C(=O)N[C@H](C(=O)O)c4cc(O)cc(O)c4-c4cc3ccc4O)[C@H](O)c3ccc(c(Cl)c3)Oc3cc2cc(c3O[C@@H]2O[C@H](CO)[C@@H](O)[C@H](O)[C@H]2O[C@H]2C[C@](C)(N)[C@H](O)[C@H](C)O2)Oc2ccc(cc2Cl)[C@H]1O [VANCOMYCIN]
3. CC(C)C[C@H](NC(=O)[C@H](CCCNC(=N)N)NC(=O)[C@H](CCCCN)NC(=O)[C@H](Cc1c[nH]c2ccccc12)NC(=O)[C@@H](NC(=O)[C@H](CCCCN)NC(=O)[C@H](CCCCN)NC(=O)[C@H](CCCNC(=N)N)NC(=O)[C@H](CC(C)C)NC(=O)[C@H](CCCNC(=N)N)NC(=O)[C@@H](N)CCCNC(=N)N)[C@@H](C)O)C(=O)N[C@@H](Cc1c[nH]c2ccccc12)C(N)=O (H-RRLRKKTWKRLW-NH2)
4. C[C@@H](O)[C@H](NC(=O)[C@H](CCCNC(=N)N)NC(=O)[C@H](Cc1c[nH]c2ccccc12)NC(=O)[C@H](CCCNC(=N)N)NC(=O)[C@@H](NC(=O)[C@H](CCCNC(=N)N)NC(=O)[C@H](Cc1c[nH]c2ccccc12)NC(=O)[C@H](CCCNC(=N)N)NC(=O)[C@@H](NC(=O)[C@H](CCCNC(=N)N)NC(=O)[C@@H](N)Cc1c[nH]c2ccccc12)[C@@H](C)O)[C@@H](C)O)C(=O)N[C@@H](CCCNC(=N)N)C(N)=O (H-WRTRWRTRWRTR-NH2)
5. C[C@@H](O)[C@H](NC(=O)[C@H](CCCCN)NC(=O)[C@H](Cc1c[nH]c2ccccc12)NC(=O)[C@H](CCCNC(=N)N)NC(=O)[C@H](Cc1ccccc1)NC(=O)[C@H](CCCNC(=N)N)NC(=O)[C@@H](N)Cc1c[nH]c2ccccc12)C(=O)N[C@@H](CCCNC(=N)N)C(=O)N[C@@H](Cc1c[nH]c2ccccc12)C(=O)N[C@@H](CCCNC(=N)N)C(=O)N[C@@H](Cc1ccccc1)C(=O)N[C@@H](CCCCN)C(N)=O (H-WRFRWKTRWRFK-NH2)

Key:
1: -0.30; 2: 2.11; 3: 1.20; 4: 0.60; 5: 0.60

Report log10 of MIC for every entry below.
1. CC(C)[C@H](NC(=O)[C@H](CCCCN)NC(=O)[C@H](Cc1c[nH]c2ccccc12)NC(=O)[C@H](CCCCN)NC(=O)[C@@H](NC(=O)[C@H](CCCCN)NC(=O)[C@H](Cc1c[nH]c2ccccc12)NC(=O)[C@H](CCCCN)NC(=O)[C@@H](NC(=O)[C@H](CCCCN)NC(=O)[C@@H](N)Cc1c[nH]c2ccccc12)C(C)C)C(C)C)C(=O)N[C@@H](CCCCN)C(N)=O (H-WKVKWKVKWKVK-NH2)
2. CC(C)C[C@H](NC(=O)[C@H](CCCNC(=N)N)NC(=O)[C@H](Cc1c[nH]c2ccccc12)NC(=O)[C@H](CCCNC(=N)N)NC(=O)[C@@H](NC(=O)[C@H](CCCCN)NC(=O)[C@H](Cc1c[nH]c2ccccc12)NC(=O)[C@H](CCCNC(=N)N)NC(=O)[C@H](CC(C)C)NC(=O)[C@H](CCCNC(=N)N)NC(=O)[C@@H](N)CCCNC(=N)N)[C@@H](C)O)C(=O)N[C@@H](CCCCN)C(N)=O (H-RRLRWKTRWRLK-NH2)

Key:
1. 0.30
2. 1.20
